biological target: Gastrin-releasing peptide receptor (Mus musculus); assay: Ability of peptide to inhibit binding of 10 pM [125I]gastrin releasing peptide to S-3T3 cell membrane.; type: cell-based
// pIC50 lookup, one value per entry
A value of pIC50 is the negative decimal logarithm of a concentration given in moles per litre.

Example entries and their recorded answers appear below.
CC(NC(=O)[C@H](Cc1csc2ccccc12)NC(=O)[C@H](Cc1c[nH]cn1)NC(=O)CCc1ccccc1)C(=O)N[C@H](C(=O)NC(C)C(=O)N[C@@H](Cc1c[nH]cn1)C(=O)N1CCC[C@@H]1CN[C@@H](Cc1ccccc1)C(N)=O)C(C)C (stereo in doubt) ... 9.12
CC(C)[C@H](NC(=O)[C@H](C)NC(=O)[C@H](Cc1c[nH]c2ccccc12)NC(=O)[C@H](Cc1cnc[nH]1)NC(=O)C1CCc2ccccc2C1)C(=O)N[C@H](C)C(=O)N[C@@H](Cc1cnc[nH]1)C(=O)N1CCC[C@@H]1CN[C@@H](Cc1ccccc1)C(N)=O (some centres undefined) ... 10.10
CC(C)[C@H](NC(=O)[C@H](C)NC(=O)[C@H](Cc1c[nH]c2ccccc12)NC(=O)[C@H](Cc1cnc[nH]1)NC(=O)Cc1cccc(C(F)(F)F)c1)C(=O)N[C@H](C)C(=O)N[C@@H](Cc1cnc[nH]1)C(=O)N1CCC[C@@H]1CN[C@@H](Cc1ccccc1)C(N)=O ... 8.08

From here, focus on the item given below.
Short answer for CC(C)[C@H](NC(=O)[C@H](C)NC(=O)[C@H](Cc1c[nH]c2ccccc12)NC(=O)[C@H](Cc1c[nH]cn1)NC(=O)[C@@H](N)Cc1ccc2ccccc2c1)C(=O)N[C@H](C)C(=O)N[C@@H](Cc1c[nH]cn1)C(=O)N1CCC[C@@H]1CN[C@@H](Cc1ccccc1)C(N)=O : pIC50 was 8.11

* * *

// log10 IC50 lookup, one value per entry
molecular target: Gastrin-releasing peptide receptor (Mus musculus, UniProt P21729); assay: The ability of the peptide to inhibit the binding of 50 pM [125I]gastrin releasing peptide to intact S-3T3 cells; type: cell-based
Sequence (P21729 whole entry): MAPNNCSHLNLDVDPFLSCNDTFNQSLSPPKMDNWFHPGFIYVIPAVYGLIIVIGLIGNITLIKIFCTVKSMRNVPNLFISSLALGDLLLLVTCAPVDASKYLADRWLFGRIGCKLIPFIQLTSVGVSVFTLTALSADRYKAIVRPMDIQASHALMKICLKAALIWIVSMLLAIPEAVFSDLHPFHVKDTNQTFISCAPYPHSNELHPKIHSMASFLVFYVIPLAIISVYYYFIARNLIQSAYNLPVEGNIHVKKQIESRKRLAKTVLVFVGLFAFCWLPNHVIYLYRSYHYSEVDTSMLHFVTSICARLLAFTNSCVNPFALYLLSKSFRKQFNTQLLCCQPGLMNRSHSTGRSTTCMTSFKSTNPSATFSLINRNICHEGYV
Where a SMILES comes first, the peptide text is derived from it. [ ]: non-standard residue; d: D form. The star is where a group is joined. ProΨ(CH2NH)PheNH2 = NC(=O)[C@H](Cc1ccccc1)NC[C@@H]1CCCN1*; dProψ(CH2NH)PheNH2 = NC(=O)[C@H](Cc1ccccc1)NC[C@H]1CCCN1*; Hydrocinnamoyl = O=C(CCc1ccccc1)*; X5 = C[C@@H](C(=O)*)c1ccccc1; Sar = CNCC(=O)O
Transform log10 | Measure IC50 | Unit nM

Example entries and their recorded answers appear below.
CC(C)[C@H](NC(=O)[C@H](C)NC(=O)[C@H](Cc1c[nH]c2ccccc12)NC(=O)[C@H](Cc1c[nH]cn1)NC(=O)[C@H](C)c1ccccc1)C(=O)N[C@H](C)C(=O)N[C@@H](Cc1c[nH]cn1)C(=O)N1CCC[C@@H]1CN[C@@H](Cc1ccccc1)C(N)=O (X5-HWAV[dA]H-{dProψ(CH2NH)PheNH2}) ... 1.48
CC(C)[C@H](NC(=O)[C@H](C)NC(=O)[C@H](Cc1c[nH]c2ccccc12)NC(=O)[C@H](Cc1cnc[nH]1)NC(=O)CCc1ccccc1)C(=O)N[C@H](C)C(=O)N[C@@H](Cc1cnc[nH]1)C(=O)N1CCC[C@@H]1CN[C@H](Cc1ccc2ccccc2c1)C(N)=O ... 0.70
CC(NC(=O)[C@H](Cc1c[nH]c2ccccc12)NC(=O)[C@H](Cc1c[nH]cn1)NC(=O)CCc1ccccc1)C(=O)N[C@H](C(=O)NC(C)C(=O)N[C@@H](Cc1c[nH]cn1)C(=O)N1CCC[C@H]1C(O)CC(=O)N[C@@H](Cc1ccccc1)C(N)=O)C(C)C (stereo in doubt) ... 1.70
CC(NC(=O)[C@H](Cc1c[nH]c2ccccc12)NC(=O)[C@H](Cc1cccs1)NC(=O)CCc1ccccc1)C(=O)N[C@H](C(=O)NC(C)C(=O)N[C@@H](Cc1c[nH]cn1)C(=O)N1CCC[C@H]1CN[C@@H](Cc1ccccc1)C(N)=O)C(C)C (stereo in doubt) ... 1.00
CC(C)[C@H](NC(=O)[C@H](C)NC(=O)[C@H](Cc1c[nH]c2ccccc12)NC(=O)[C@H](Cc1cnc[nH]1)NC(=O)CCc1cccc(C(F)(F)F)c1)C(=O)N[C@H](C)C(=O)N[C@@H](Cc1cnc[nH]1)C(=O)N1CCC[C@@H]1CN[C@@H](Cc1ccccc1)C(N)=O ... 1.00
CC(NC(=O)[C@H](Cc1c[nH]c2ccccc12)NC(=O)[C@H](Cc1c[nH]cn1)NC(=O)CCc1ccccc1)C(=O)N[C@H](C(=O)NC(C)C(=O)N[C@@H](Cc1c[nH]cn1)C(=O)N1CCC[C@H]1CN[C@@H](Cc1ccccc1)C(N)=O)C(C)C (stereo in doubt) ... -3.00

From here, focus on the item given below.
Short answer for CC(C)[C@H](NC(=O)[C@H](C)NC(=O)[C@H](Cc1c[nH]c2ccccc12)NC(=O)[C@H](Cc1cnc[nH]1)NC(=O)CCc1ccccc1)C(=O)N(C)CC(=O)N[C@@H](Cc1cnc[nH]1)C(=O)N1CCC[C@H]1CN[C@@H](Cc1ccccc1)C(N)=O (Hydrocinnamoyl-HWAV[Sar]H-{ProΨ(CH2NH)PheNH2}) : log10 IC50 was -1.00

* * *

biological target: Gastrin-releasing peptide receptor (Mus musculus) (UniProt P21729); assay: Inhibition of 6 nM bombesin induced [3H]thymidine incorporation measured in swiss 3T3 cells using a mitogenicity assay; type: functional, cell-based
Sequence (P21729 whole entry): as above
Where a SMILES comes first, the peptide text is derived from it. [ ]: non-standard residue; d: D form. The star is where a group is joined. dProψ(CH2NH)PheNH2 = NC(=O)[C@H](Cc1ccccc1)NC[C@H]1CCCN1*; Desaminotyrosyl = O=C(CCc1ccc(O)cc1)*; X5 = C[C@@H](C(=O)*)c1ccccc1
Just a reminder that ties go to NO: only Activity strictly below 10 nM counts as YES.

Would you please look over these solved cases?
CC(NC(=O)[C@H](Cc1c[nH]c2ccccc12)NC(=O)[C@H](Cc1c[nH]cn1)NC(=O)CCc1ccccc1)C(=O)N[C@H](C(=O)NC(C)C(=O)N[C@@H](Cc1c[nH]cn1)C(=O)N1CCC[C@H]1C(O)CC(=O)N[C@@H](Cc1ccccc1)C(N)=O)C(C)C (stereo in doubt) ... NO
CC(NC(=O)[C@H](Cc1c[nH]c2ccccc12)NC(=O)[C@H](Cc1c[nH]cn1)NC(=O)CCc1ccccc1)C(=O)N[C@H](C(=O)NC(C)C(=O)N[C@@H](Cc1c[nH]cn1)C(=O)N1CCC[C@H]1CN[C@@H](Cc1ccccc1)C(N)=O)C(C)C (stereo in doubt) ... YES

Below 10 nM on Activity? Entry CC(C)[C@H](NC(=O)[C@H](C)NC(=O)[C@H](Cc1c[nH]c2ccccc12)NC(=O)[C@H](Cc1c[nH]cn1)NC(=O)[C@H](C)c1ccccc1)C(=O)N[C@H](C)C(=O)N[C@@H](Cc1c[nH]cn1)C(=O)N1CCC[C@@H]1CN[C@@H](Cc1ccccc1)C(N)=O (X5-HWAV[dA]H-{dProψ(CH2NH)PheNH2})
YES

Below 10 nM on Activity? Entry CC(C)[C@H](NC(=O)[C@H](C)NC(=O)[C@H](Cc1c[nH]c2ccccc12)NC(=O)[C@H](Cc1c[nH]cn1)NC(=O)CCc1ccc(O)cc1)C(=O)N[C@H](C)C(=O)N[C@@H](Cc1c[nH]cn1)C(=O)N1CCC[C@@H]1CN[C@@H](Cc1ccccc1)C(N)=O (Desaminotyrosyl-HWAV[dA]H-{dProψ(CH2NH)PheNH2})
YES

* * *

// pIC50 lookup, one value per entry
molecular target: Gastrin-releasing peptide receptor (Mus musculus); assay: The ability of the peptide to inhibit the binding of 50 pM [125I]gastrin releasing peptide to intact S-3T3 cells; type: cell-based
Where a SMILES comes first, the peptide text is derived from it. [ ]: non-standard residue; d: D form. The star is where a group is joined. dProψ(CH2NH)PheNH2 = NC(=O)[C@H](Cc1ccccc1)NC[C@H]1CCCN1*; X7 = CC(C)(CC(=O)*)c1ccccc1
A value of pIC50 is the negative decimal logarithm of a concentration given in moles per litre.

CC(C)[C@H](NC(=O)[C@H](C)NC(=O)[C@H](Cc1c[nH]c2ccccc12)NC(=O)[C@H](Cc1c[nH]cn1)NC(=O)CC(C)(C)c1ccccc1)C(=O)N[C@H](C)C(=O)N[C@@H](Cc1c[nH]cn1)C(=O)N1CCC[C@@H]1CN[C@@H](Cc1ccccc1)C(N)=O (X7-HWAV[dA]H-{dProψ(CH2NH)PheNH2}) ... 8.00

From here, focus on the item given below.
Short answer for CC(C)[C@H](NC(=O)[C@H](C)NC(=O)[C@H](Cc1c[nH]c2ccccc12)NC(=O)[C@H](Cc1cnc[nH]1)NC(=O)C[C@H](C)c1ccccc1)C(=O)N[C@H](C)C(=O)N[C@@H](Cc1cnc[nH]1)C(=O)N1CCC[C@@H]1CN[C@@H](Cc1ccccc1)C(N)=O : pIC50 was 8.00
